meta.source: the supplement of paper PMC11208160

Reported recombinant barcode read abundance (log10) by item:
Assay: recombinant barcode read abundance after kanamycin selection (control-corrected) (log10(CPM+1)); higher = more efficient recombination; sequences stand for … in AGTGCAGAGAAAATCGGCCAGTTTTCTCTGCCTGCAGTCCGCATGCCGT…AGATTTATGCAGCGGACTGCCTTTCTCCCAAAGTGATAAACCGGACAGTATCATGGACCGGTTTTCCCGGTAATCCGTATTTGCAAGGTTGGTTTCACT; site = the 11-nt target
The reply should be a number, written without any unit.

Solved cases below.
In [3]: df
Out[3]:
                              sequence_data  reported
0  CGGTCCGCTTGGGTTCTAACCTGTTGCCT (site AGATCCGCTAG)     0.103
1  GCCGATCCTTGGGTTCTAACCTGTTGCCT (site GGCGATCCTAG)     0.205
2  ATATTGCCTTGGGTTCTAACCTGTTGCCT (site ATATTGCCTAG)      1.67

Consider the record given below.
### Prompt Return value of recombinant barcode read abundance (log10) for input CGCGGGGCTTGGGTTCTAACCTGTTGCCT (site CGCGGGGCTAG) , no commentary.
### Response 0.662

* * *

Listed sequences paired with reported recombinant UMI read abundance (log10)
Assay: recombinant UMI read abundance after kanamycin selection (control-corrected) (log10(CPM+1)); higher = more efficient recombination; extreme values may be limits of the assay; sequences stand for … in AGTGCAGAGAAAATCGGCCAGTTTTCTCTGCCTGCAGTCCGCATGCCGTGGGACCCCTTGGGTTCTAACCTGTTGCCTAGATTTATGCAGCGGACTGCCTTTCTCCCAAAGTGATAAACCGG…AGGTTGGTTTCACT; site = the 11-nt donor
// no unit, no text: just the number

                              sequence_data                             metric_name  reported
0  ACTTATGCATGGACCGGTTTTCCCGGTAATCCGTATTTGGA (site ACTTATGCTTC)  recombinant UMI read abundance (log10)      1.41
1  TAGCTATCATGGACCGGTTTTCCCGGTAATCCGTATTTGAA (site TAGCTAGCTTT)  recombinant UMI read abundance (log10)   0.00959
2  AGGTTCCCATGGACCGGTTTTCCCGGTAATCCGTATTTGTC (site AGGTTCCCTTA)  recombinant UMI read abundance (log10)         0

### Prompt State its recombinant UMI read abundance (log10) for this sequence: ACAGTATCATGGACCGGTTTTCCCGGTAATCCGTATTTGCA (site ACAGTATCTGT)
### Response 0.00931

### Prompt Recall and state the measured recombinant UMI read abundance (log10) for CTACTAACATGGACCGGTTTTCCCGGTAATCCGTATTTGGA (site CGACTAACTTC) .
### Response 0.339

* * *

Assay: recombinant UMI read abundance after kanamycin selection (control-corrected) (log10(CPM+1)); higher = more efficient recombination; extreme values may be limits of the assay; sequences stand for … in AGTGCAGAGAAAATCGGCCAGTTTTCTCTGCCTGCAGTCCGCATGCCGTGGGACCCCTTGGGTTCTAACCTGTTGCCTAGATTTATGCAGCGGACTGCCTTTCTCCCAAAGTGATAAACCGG…AGGTTGGTTTCACT; site = the 11-nt donor
Listing of recorded recombinant UMI read abundance (log10) by entry.
When you answer, write just the number.

The cases that follow already have their recombinant UMI read abundance (log10) on record.
In [3]: df
Out[3]:
                              sequence_data                             metric_name  reported
0  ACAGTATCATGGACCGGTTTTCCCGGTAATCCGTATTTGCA (site ACGGTTTCTTG)  recombinant UMI read abundance (log10)    0.0105
1  ATAGTATCATGGACCGGTTTTCCCGGTAATCCGTATTTGTA (site ACAGTATCTTG)  recombinant UMI read abundance (log10)     0.029
2  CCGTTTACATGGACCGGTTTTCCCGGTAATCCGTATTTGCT (site CCGTTCACTAG)  recombinant UMI read abundance (log10)   0.00422

### Prompt Identify measured recombinant UMI read abundance (log10) corresponding to GGGGAACCATGGACCGGTTTTCCCGGTAATCCGTATTTGCA (site GGGGAACCTTG)
### Response 0

### Prompt // fetch recombinant UMI read abundance (log10) given entry AGGTGCCCATGGACCGGTTTTCCCGGTAATCCGTATTTGTG (site AGGTTCCCTCA)
### Response 0.755
